Every entry's value here was drawn from paper PMC9482650.

Target: T1, DLG3_3, Q92796
T1 sequence (Q92796 374-475, limits assumed, looked up): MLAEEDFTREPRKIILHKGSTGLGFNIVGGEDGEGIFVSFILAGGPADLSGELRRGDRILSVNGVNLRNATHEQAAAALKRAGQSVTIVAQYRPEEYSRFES
Experiment: holdup assay
Set-up: key: below the threshold = too weak to quantify, mostly under pKd 3.1 to 4
Settings: plain residues with an end cap or a label only (N-terminal biotin on a linker: ado-ado)
result_type: pKd

| binder | experimental_result |
| --- | --- |
| EKKTLIGIKL [GOT1L1, Q8NHS2] | below the threshold |
| VKPQVSESKL [ACOT8, O14734] | below the threshold |
| EALLQMESVA [CAVIN3, Q969G5] | below the threshold |
| SGSLKLMTTV [DACT1, Q9NYF0] | 4.2 |
